System: NK-YS (IL-2 2.5 ng/mL)
Assay: percent inhibition of viability; higher = more inhibition;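 further: normalised to DMSO-only wells as negative and benzethonium chloride as positive control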
Conditions: 72 h; 1000 nM
Metric Name: percent inhibition of viability (%)

{"Compound": "Nc1ccccc1NC(=O)c1ccc(CNC(=O)OCc2cccnc2)cc1 [Entinostat] (max concentration tested 10000 nM)", "Unit Tag": "%", "Numeric Readout": 20.5}
{"Compound": "Nc1cc(C(F)(F)F)c(-c2cc(N3CCOCC3)nc(N3CCOCC3)n2)cn1 [Buparlisib] (max concentration tested 10000 nM)", "Unit Tag": "%", "Numeric Readout": 55}
{"Compound": "C=CCNC1=C2C[C@@H](C)C[C@H](OC)[C@H](O)[C@@H](C)/C=C(\\C)[C@H](OC(N)=O)[C@@H](OC)/C=C\\C=C(/C)C(=O)NC(=CC1=O)C2=O [Tanespimycin] (max concentration tested 10000 nM)", "Unit Tag": "%", "Numeric Readout": 103}

====

Tested on: KAI3 (IL-2 2.5 ng/mL)
Assay: percent inhibition of viability; higher = more inhibition
Conditions: 72 h; 100 nM
Reported percent inhibition of viability by item:

{"Molecule": "CCCCc1nc2cc(/C=C/C(=O)NO)ccc2n1CCN(CC)CC [Pracinostat] (max concentration tested 10000 nM)", "Experimental System": "KAI3 (IL-2 2.5 ng/mL)", "percent inhibition of viability, %": 59.8}
{"Molecule": "O=C(c1ccc(OCCN2CCCCC2)cc1)c1c(-c2ccc(O)cc2)sc2cc(O)ccc12 [Raloxifene] (max concentration tested 10000 nM)", "Experimental System": "KAI3 (IL-2 2.5 ng/mL)", "percent inhibition of viability, %": 5.98}
{"Molecule": "C=C1C[C@@H]2[C@H](CC[C@]3(C)C(=O)CC[C@@H]23)[C@@]2(C)C=CC(=O)C=C12 [Exemestane] (max concentration tested 10000 nM)", "Experimental System": "KAI3 (IL-2 2.5 ng/mL)", "percent inhibition of viability, %": 6.63}
{"Molecule": "COC1=CC(c2cc3ccccc3[nH]2)=N/C1=C\\c1[nH]c(C)cc1C [Obatoclax] (max concentration tested 10000 nM)", "Experimental System": "KAI3 (IL-2 2.5 ng/mL)", "percent inhibition of viability, %": -1.6}
{"Molecule": "CNC(=O)c1ccc(N2C(=S)N(c3ccc(C#N)c(C(F)(F)F)c3)C(=O)C23CCC3)cc1F [RD162] (max concentration tested 10000 nM)", "Experimental System": "KAI3 (IL-2 2.5 ng/mL)", "percent inhibition of viability, %": 1.83}
{"Molecule": "Nc1nc(Cl)nc2c1ncn2[C@H]1C[C@H](O)[C@@H](CO)O1 [Cladribine] (max concentration tested 1000 nM)", "Experimental System": "KAI3 (IL-2 2.5 ng/mL)", "percent inhibition of viability, %": 61.5}
{"Molecule": "Cc1ccc(F)c(NC(=O)Nc2ccc(-c3cccc4[nH]nc(N)c34)cc2)c1 [Linifanib] (max concentration tested 1000 nM)", "Experimental System": "KAI3 (IL-2 2.5 ng/mL)", "percent inhibition of viability, %": 7.49}
{"Molecule": "C#Cc1cccc(Nc2ncnc3cc(OC)c(OCCCCCCC(=O)NO)cc23)c1 [CUDC-101] (max concentration tested 10000 nM)", "Experimental System": "KAI3 (IL-2 2.5 ng/mL)", "percent inhibition of viability, %": 27.8}
{"Molecule": "COc1cc(C(=O)O)ccc1NC(=O)[C@@H]1N[C@@H](CC(C)(C)C)[C@](C#N)(c2ccc(Cl)cc2F)[C@H]1c1cccc(Cl)c1F [RG7388] (max concentration tested 10000 nM)", "Experimental System": "KAI3 (IL-2 2.5 ng/mL)", "percent inhibition of viability, %": 39.8}
{"Molecule": "CC(=O)O[C@@]12CO[C@@H]1C[C@H](O)[C@@]1(C)C(=O)[C@H](O)C3=C(C)[C@@H](OC(=O)[C@H](O)[C@@H](NC(=O)OC(C)(C)C)c4ccccc4)C[C@@](O)([C@@H](OC(=O)c4ccccc4)[C@H]21)C3(C)C [Docetaxel] (max concentration tested 1000 nM)", "Experimental System": "KAI3 (IL-2 2.5 ng/mL)", "percent inhibition of viability, %": 57.1}
{"Molecule": "CS(=O)(=O)c1ccc(-c2cnc(N)c(C(=O)Nc3ccccc3)n2)cc1 [VE-821] (max concentration tested 10000 nM)", "Experimental System": "KAI3 (IL-2 2.5 ng/mL)", "percent inhibition of viability, %": 7.79}
{"Molecule": "COc1cc2c(NC3CCN(C(C)C)CC3)nc(N3CCC(F)(F)CC3)nc2cc1OCCCN1CCCC1 [UNC0642] (max concentration tested 10000 nM)", "Experimental System": "KAI3 (IL-2 2.5 ng/mL)", "percent inhibition of viability, %": 10.1}
{"Molecule": "O=C(Cc1ccc(-c2ccc(OCCN3CCOCC3)cc2)cn1)NCc1ccccc1 [KX2-391] (max concentration tested 10000 nM)", "Experimental System": "KAI3 (IL-2 2.5 ng/mL)", "percent inhibition of viability, %": 55.4}
{"Molecule": "FC(F)c1nc2ccccc2n1-c1nc(N2CCOCC2)nc(N2CCOCC2)n1 [ZSTK474] (max concentration tested 10000 nM)", "Experimental System": "KAI3 (IL-2 2.5 ng/mL)", "percent inhibition of viability, %": 14.2}
{"Molecule": "CC(=O)O[C@H]1C(=O)[C@@]2(C)[C@H]([C@H](OC(=O)c3ccccc3)[C@]3(O)C[C@H](OC(=O)[C@H](O)[C@@H](NC(=O)c4ccccc4)c4ccccc4)C(C)=C1C3(C)C)[C@]1(OC(C)=O)CO[C@@H]1C[C@@H]2O [Paclitaxel] (max concentration tested 1000 nM)", "Experimental System": "KAI3 (IL-2 2.5 ng/mL)", "percent inhibition of viability, %": 60.6}
{"Molecule": "COc1cccc2c1C(=O)c1c(O)c3c(c(O)c1C2=O)C[C@@](O)(C(=O)CO)C[C@@H]3O[C@H]1C[C@H](N)[C@H](O)[C@H](C)O1 [Doxorubicin] (max concentration tested 1000 nM)", "Experimental System": "KAI3 (IL-2 2.5 ng/mL)", "percent inhibition of viability, %": 74.9}
{"Molecule": "CCc1cncnc1N1CCN(Cc2nc3ccc(C(F)(F)F)cc3[nH]2)CC1 (max concentration tested 10000 nM)", "Experimental System": "KAI3 (IL-2 2.5 ng/mL)", "percent inhibition of viability, %": -9.54}
{"Molecule": "C[C@]1(O)C[C@@H](c2nc(-c3ccc4ccc(-c5ccccc5)nc4c3)c3c(N)nccn32)C1 [Linsitinib] (max concentration tested 10000 nM)", "Experimental System": "KAI3 (IL-2 2.5 ng/mL)", "percent inhibition of viability, %": -4.49}
{"Molecule": "CNC(=O)c1cccc(-c2ccc3c(N4CCOC[C@@H]4C)nc(N4CCOC[C@@H]4C)nc3n2)c1 [AZD2014] (max concentration tested 10000 nM)", "Experimental System": "KAI3 (IL-2 2.5 ng/mL)", "percent inhibition of viability, %": 46.2}
{"Molecule": "Cc1cc(C)c(/C=C2\\C(=O)Nc3ccccc32)[nH]1 [Semaxanib] (max concentration tested 10000 nM)", "Experimental System": "KAI3 (IL-2 2.5 ng/mL)", "percent inhibition of viability, %": 2.8}
{"Molecule": "Cc1ccccc1C(C(=O)NC1CCCCC1)N(C(=O)Cn1ccnc1C)c1cccc(F)c1 (configuration not stated) [AGI-5198] (max concentration tested 10000 nM)", "Experimental System": "KAI3 (IL-2 2.5 ng/mL)", "percent inhibition of viability, %": 4.4}
{"Molecule": "CNC(=O)c1cc(Oc2ccc(NC(=O)Nc3ccc(Cl)c(C(F)(F)F)c3)c(F)c2)ccn1 [Regorafenib] (max concentration tested 10000 nM)", "Experimental System": "KAI3 (IL-2 2.5 ng/mL)", "percent inhibition of viability, %": -6.12}

====

Reported percent inhibition of viability by item:
Test system: KAI3 (IL-2 2.5 ng/mL)
Assay: percent inhibition of viability; higher = more inhibition
Conditions: 72 h; 1 nM

{"Molecule": "Nc1nc(N)c2nc(-c3cccc(O)c3)c(-c3cccc(O)c3)nc2n1 [TG100-115] (max concentration tested 10000 nM)", "Unit Tag": "%", "percent inhibition of viability": -5.91}
{"Molecule": "C=CCc1cccc(/C=N/NC(=O)CN2CCN(Cc3ccccc3)CC2)c1O [PAC-1] (max concentration tested 10000 nM)", "Unit Tag": "%", "percent inhibition of viability": -5.72}
{"Molecule": "C[C@@H](Nc1cc(F)cc(F)c1)c1cc(C(=O)N(C)C)cc2c(=O)cc(N3CCOCC3)oc12 [AZD-8186] (max concentration tested 1000 nM)", "Unit Tag": "%", "percent inhibition of viability": 1.77}
{"Molecule": "C[C@]1(O)C[C@@H](c2nc(-c3ccc4ccc(-c5ccccc5)nc4c3)c3c(N)nccn32)C1 [Linsitinib] (max concentration tested 10000 nM)", "Unit Tag": "%", "percent inhibition of viability": 6.27}
{"Molecule": "CCCCc1nc2cc(/C=C/C(=O)NO)ccc2n1CCN(CC)CC [Pracinostat] (max concentration tested 10000 nM)", "Unit Tag": "%", "percent inhibition of viability": -0.25}
{"Molecule": "Nc1nc(F)nc2c1ncn2[C@@H]1O[C@H](CO)[C@@H](O)[C@@H]1O [Fludarabine] (max concentration tested 10000 nM)", "Unit Tag": "%", "percent inhibition of viability": -10.9}
{"Molecule": "CN1CCC(COc2cnc(-c3cccc(Cn4nc(-c5cccc(C#N)c5)ccc4=O)c3)nc2)CC1 (max concentration tested 1000 nM)", "Unit Tag": "%", "percent inhibition of viability": -8.6}
{"Molecule": "COCC[n+]1c2c(n(Cc3cnccn3)c1C)C(=O)c1ccccc1C2=O [YM155] (max concentration tested 10000 nM)", "Unit Tag": "%", "percent inhibition of viability": 8.21}
{"Molecule": "CC(C)(C)c1cc(NC(=O)Nc2ccc(-c3cn4c(n3)sc3cc(OCCN5CCOCC5)ccc34)cc2)no1 [Quizartinib] (max concentration tested 1000 nM)", "Unit Tag": "%", "percent inhibition of viability": -2.84}
{"Molecule": "COc1cc2c(Oc3ccc4[nH]c(C)cc4c3F)ncnc2cc1OCCCN1CCCC1 [Cediranib] (max concentration tested 1000 nM)", "Unit Tag": "%", "percent inhibition of viability": -2.39}
{"Molecule": "O=C(Nc1ccc(-c2ccnc(Nc3ccc(N4CCOCC4)cc3)n2)cc1)C1CCCN1 (stereo not given) [XL019] (max concentration tested 10000 nM)", "Unit Tag": "%", "percent inhibition of viability": -6.77}
{"Molecule": "COc1c(C)cnc(Cn2cnc3c(Cl)nc(N)nc32)c1C [BIIB021] (max concentration tested 10000 nM)", "Unit Tag": "%", "percent inhibition of viability": -2.5}
{"Molecule": "Cc1sc2c(c1C)C(c1ccc(Cl)cc1)=N[C@@H](CC(=O)OC(C)(C)C)c1nnc(C)n1-2 [(+)JQ1] (max concentration tested 10000 nM)", "Unit Tag": "%", "percent inhibition of viability": -7.52}
{"Molecule": "Cc1cnc(Nc2ccc(OCCN3CCCC3)cc2)nc1Nc1cccc(S(=O)(=O)NC(C)(C)C)c1 (max concentration tested 10000 nM)", "Unit Tag": "%", "percent inhibition of viability": -2.12}
{"Molecule": "Oc1ncnc2[nH]ncc12 [Allopurinol] (max concentration tested 10000 nM)", "Unit Tag": "%", "percent inhibition of viability": 17.2}
{"Molecule": "O=C1CN2Cc3c(ccc(Cl)c3Cl)N=C2N1 [Anagrelide] (max concentration tested 10000 nM)", "Unit Tag": "%", "percent inhibition of viability": -3.01}
{"Molecule": "O=C(Nc1cccc(Nc2ncc(Br)c(NCCc3cnc[nH]3)n2)c1)N1CCCC1 [BX-912] (max concentration tested 10000 nM)", "Unit Tag": "%", "percent inhibition of viability": 4.7}
{"Molecule": "COc1cc(C(=O)O)ccc1NC(=O)[C@@H]1N[C@@H](CC(C)(C)C)[C@](C#N)(c2ccc(Cl)cc2F)[C@H]1c1cccc(Cl)c1F [RG7388] (max concentration tested 10000 nM)", "Unit Tag": "%", "percent inhibition of viability": 5.19}
{"Molecule": "C=C1C[C@@H]2[C@H](CC[C@]3(C)C(=O)CC[C@@H]23)[C@@]2(C)C=CC(=O)C=C12 [Exemestane] (max concentration tested 10000 nM)", "Unit Tag": "%", "percent inhibition of viability": 0.1}
{"Molecule": "Nc1nc2[nH]cnc2c(=S)[nH]1 [Thioguanine] (max concentration tested 10000 nM)", "Unit Tag": "%", "percent inhibition of viability": -7.74}
